system: NCI-H522 lung; assay: NCI-60 one-dose screen, 48 h (100 = growth as untreated, 0 = no growth, -100 = all killed); conditions: 10 µM unless noted
Compounds without any hit were thinned out: in the full panel of roughly 83,000, 20% have a hit.
# 1 = growth below 80% (exclusive); -1 = growth at/above 80%

compound: NNC(=O)CSc1nc2scc(-c3ccccc3)c2c(=O)n1-c1ccccc1
assay target: NCI-H522 lung
cat: -1
--
compound: COc1cnc2c(c1)C(=O)c1c-2n(CCCNC(C)C)c(=O)c2cc(Cl)ccc12
assay target: NCI-H522 lung
cat: 1
--
compound: CC(C)c1nc2ccccc2n1CC(=O)N/N=C/c1cccc(O)c1
assay target: NCI-H522 lung
cat: -1
--
compound: O=C(O)CSc1ccc(NCc2oc(CO)cc(=O)c2O)cc1
assay target: NCI-H522 lung
cat: -1
--
compound: Cc1ccc(Nc2cc(Cl)c([N+](=O)[O-])cc2[N+](=O)[O-])cc1
assay target: NCI-H522 lung
cat: 1
--
compound: C=C1C(=O)O[C@H]2[C@H]1CC/C(COC(=O)NCc1cccc(OC)c1)=C\CC[C@@]1(C)O[C@@H]21
assay target: NCI-H522 lung
cat: 1
--
compound: CCCCc1nc(Cl)c(C2CC(c3ccc(S(N)(=O)=O)cc3)=NN2c2ccc(C#N)cc2)[nH]1 (centres undefined)
assay target: NCI-H522 lung
cat: 1
--
compound: O/N=C/c1ccncc1
assay target: NCI-H522 lung
cat: -1
--
compound: O=C(NCCN1CCCCC1)n1cc(-c2ccncc2)c(-c2ccc(Cl)c(O)c2)n1
assay target: NCI-H522 lung
cat: -1
--
compound: CN(C)c1nc(-c2cccs2)n2nc(-c3ccc(Cl)cc3)cc2n1
assay target: NCI-H522 lung
cat: 1
--
compound: CCOC(=O)C1OC2(CCCC2)OC1C(=O)OCC (centres undefined)
assay target: NCI-H522 lung
cat: -1
--
compound: COc1ccc(C2NC(=O)c3cc4c(cc3N2)OCO4)cc1 (centres undefined)
assay target: NCI-H522 lung
cat: 1
--
compound: CCNCCCn1c2c(c3ccc(Cl)cc3c1=O)C(=O)c1cc(OC)cnc1-2
assay target: NCI-H522 lung
cat: 1
--
compound: Cc1c(C(=O)Nc2ccccc2F)sc2c(=O)[nH]cnc12
assay target: NCI-H522 lung
cat: 1
--
compound: CCN(CC)CCNC(=O)C(F)(F)C(F)(F)C(F)(F)F
assay target: NCI-H522 lung
cat: -1
--
compound: C=CCN(CC#N)CC=C
assay target: NCI-H522 lung
cat: -1
--
compound: O=C1SCN(Cc2ccccc2)CN1Cc1ccccc1
assay target: NCI-H522 lung
cat: 1
--
compound: CCN1CCN(Cc2ccc(NC(=O)Nc3ccc(-n4ccc5c(NC(=O)c6ccccc6)nccc54)cc3)cc2C(F)(F)F)CC1
assay target: NCI-H522 lung
cat: 1
--
compound: CCCCCCCCCCCCCCCCCC(=O)OCCCCCCCCCCCCC
assay target: NCI-H522 lung
cat: -1
--
compound: COc1cc(-c2nn(C(=O)NCCN3CCN(C)CC3)cc2-c2ccncc2)ccc1Cl
assay target: NCI-H522 lung
cat: 1
--
compound: Cc1ccc(C(CN(C)C)C(=O)c2ccccc2)cc1 (centres undefined)
assay target: NCI-H522 lung
cat: 1
--
compound: OCCN(CCO)c1ccc2ccccc2c1
assay target: NCI-H522 lung
cat: 1
--
compound: CCOC(=O)c1ccc2c(c1)nc(-c1ccc(Cl)cc1)n2-c1cc(C(C)(C)C)[nH]n1
assay target: NCI-H522 lung
cat: 1
--
compound: CCn1c(Cc2ccccc2Nc2c(Cl)cccc2Cl)nnc1SCC(=O)Nc1cccc(OC)c1
assay target: NCI-H522 lung
cat: 1
--
compound: CCOc1cc(/C=N\NC(=O)C[N+](C)(C)C)ccc1O
assay target: NCI-H522 lung
cat: -1
--
compound: O=c1c2cc(Br)cc(Br)c2nc(-c2ccc(Cl)cc2)n1/N=C\c1ccccc1F
assay target: NCI-H522 lung
cat: 1
--
compound: N/N=C(\C(=N\N)c1ccccc1)c1ccccc1
assay target: NCI-H522 lung
cat: -1
--
compound: CCN1C(=O)N(CC)C2C1N=C(SC)N2/N=C/C=C/c1ccccc1OC (centres undefined)
assay target: NCI-H522 lung
cat: 1
--
compound: CC(C)[C@@]12C[C@@H](OC(=O)C3CO3)[C@@](C)(O1)[C@@H]1CC[C@@H](C)[C@H]1[C@@H]2OC(=O)/C=C/c1ccccc1 (some centres undefined)
assay target: NCI-H522 lung
cat: 1
--
compound: C=C(C)[C@@H]1CC[C@]2(C(=O)NC(COC(=O)C(Cl)Cl)(COC(=O)C(Cl)Cl)COC(=O)C(Cl)Cl)CC[C@]3(C)[C@H](CC[C@@H]4[C@@]5(C)CC[C@H](OC(C)=O)C(C)(C)[C@@H]5CC[C@]43C)[C@@H]12
assay target: NCI-H522 lung
cat: 1
--
compound: Nc1c(C(=O)Nc2cccc(Cl)c2)sc2nc3c(cc12)C(=O)CCC3
assay target: NCI-H522 lung
cat: 1
--
compound: C=CCOC(=O)C1=C(C)NC2=C(C(=O)CC(C)(C)C2)C1c1ccc(OC)cc1 (centres undefined)
assay target: NCI-H522 lung
cat: -1
--
compound: CCc1onc(-c2ccc(OC)cc2)c1-c1ccccc1OCCN(CC)CC
assay target: NCI-H522 lung
cat: -1
--
compound: O=C(CSc1nnc(Cc2ccccc2Nc2c(Cl)cccc2Cl)n1-c1ccccc1)N1N=C(c2ccc3ccccc3c2)CC1c1ccc(Cl)cc1 (centres undefined)
assay target: NCI-H522 lung
cat: 1
--
compound: CC(C)=CC[C@@H]1CC2(CC=C(C)C)C(=O)C(OC3(C(=O)c4ccccc4)C(=O)C4(CC=C(C)C)C[C@@H](CC=C(C)C)C(C)(C)C(CC=C(C)C)(C4=O)C3=O)(C(=O)c3ccccc3)C(=O)C(CC=C(C)C)(C2=O)C1(C)C (some centres undefined)
assay target: NCI-H522 lung
cat: 1
--
compound: COc1ccccc1/C=C/C(=O)CCC(=O)O
assay target: NCI-H522 lung
cat: -1
--
compound: COc1ccccc1CNCCCN1C(=O)c2ccc3c4c(ccc(c24)C1=O)C(=O)N(CCCCNCCCN)C3=O
assay target: NCI-H522 lung
cat: 1
--
compound: COc1ccc2c(c1)OC1=C(C(=O)OC1)C2c1cc(OC)c2c(c1)OCCO2 (centres undefined)
assay target: NCI-H522 lung
cat: 1

====

Test system: SK-OV-3 ovarian
Assay: NCI-60 one-dose screen, 48 h
Conditions: 10 µM unless noted
Experimental: Growth inhibition of the SK-OV-3 human tumor cell line is measured as a screen for anti-cancer activity. Cells are grown in 96 well plates and exposed to the test compound for 48 hours. Compounds are tested at a single concentration, which is 10^-5 M for most compounds. The reported endpoint is percent growth (GI% or GIPRCNT), where numbers from 0 - 100% represent growth inhibition, and numbers from -100% - 0 represent cell death. For example, a value of 40 represents 60% growth inhibition. […]
About 83,000 compounds went through this panel and 20% of them were active in at least one assay; those are over-represented in the sample as a whole. The source made the active and inactive calls. Rule for the calls: active = growth percent below 10; inactive = the rest.
Outcomes: yes (active), no (inactive)

compound: COc1ccc(-c2cc(-c3cn(-c4cccc(Cl)c4)nc3-c3ccc(OC)cc3)[nH]c(=S)n2)cc1
cat: no

compound: Cc1[nH]c2ccccc2c1C1=CC(=O)C=CC1=O
cat: no

compound: CCC1=CC2CN(C1)Cc1c([nH]c3ccccc13)[C@@](C(=O)OC)(c1cc3c(cc1OC)N(C)[C@H]1[C@@](O)(C(=O)OC)[C@H](OC(C)=O)[C@]4(CC)C=CCN5CC[C@]31[C@@H]54)C2 (some centres not stated)
cat: yes

compound: COc1cc(CN(CCC(O)N2CCCC2=O)Cc2ccc3c(c2)OCO3)cc(OC)c1OC (configuration not stated)
cat: no

compound: O=c1c2cc(Br)cc(Br)c2nc(-c2ccc(Cl)cc2)n1/N=C/c1cccc(F)c1
cat: no

compound: Cc1cc(-c2ccc(N=Nc3c(S(=O)(=O)O)cc4cc(S(=O)(=O)O)cc(O)c4c3O)c(C)c2)ccc1N=Nc1c(S(=O)(=O)O)cc2cc(S(=O)(=O)O)cc(O)c2c1O
cat: no

compound: CC1OC(n2c3ccccc3c3c4c(c5c6ccccc6[nH]c5c32)C(=O)N(CCN2CCOCC2)C4=O)CC(O)C1O (configuration not stated)
cat: yes

====

test system: 786-0 renal; test: NCI-60 one-dose screen, 48 h; details: 10 µM unless noted
The panel holds about 83,000 compounds, 20% with a hit somewhere; the sample as a whole holds those more often. The source made the active and inactive calls. How the source made its calls: active means growth percent below 10; inactive means the rest.
Outcome codes: active, inactive

molecule: Cc1ccc(Nc2cccc3ccccc23)cc1
assay target: 786-0 renal
cat: inactive
--
molecule: CCn1c(Cc2ccccc2Nc2c(Cl)cccc2Cl)nnc1SCC(=O)Nc1ccccc1C(F)(F)F
assay target: 786-0 renal
cat: inactive
--
molecule: O=C(CCl)N1c2ccccc2Oc2ccc3ccccc3c21
assay target: 786-0 renal
cat: active
--
molecule: COc1ccc(NC(=O)c2sc3c(=O)[nH]c(C(F)(F)F)nc3c2C)cc1
assay target: 786-0 renal
cat: inactive
--
molecule: O=C1Nc2ccccc2/C1=C\c1nc(C2CCN(S(=O)(=O)c3ccc(F)cc3)CC2)n2ccccc12
assay target: 786-0 renal
cat: active
--
molecule: Fc1ccc(-c2cnc3nonc3n2)c(F)c1
assay target: 786-0 renal
cat: inactive
--
molecule: CC(C)N(C(=S)SSC(=S)N(C(C)C)C(C)C)C(C)C
assay target: 786-0 renal
cat: inactive
--
molecule: COC(=O)OC1C(O[C@H]2C[C@H]3[C@@H]4CC=C5C[C@@H](O)CC[C@]5(C)[C@H]4CC[C@]3(C)[C@H]2[C@H](C)C(=O)CCC(C)C)OCC(O)C1OC1OCC(O)C(O)C1OC(=O)c1ccc(OC)cc1 (some centres undefined)
assay target: 786-0 renal
cat: active
--
molecule: CC(C)(C)c1nn(-c2ccccc2)c2c1C(=O)CSC(c1ccccc1Cl)N2 (centres undefined)
assay target: 786-0 renal
cat: inactive
